propertyName: melting point

# compound, melting point
rows = [
    ("Cc1ccc2c(c1)[C@]1(N[C@@H](Cc3ccccc3)[C@H](c3ccc(Cl)cc3)[C@H]1C(=O)c1ccc([N+](=O)[O-])cc1)C(=O)N2 [24c]", "135 to 137 °C"),
]

Request: Can you look up the measured melting point of COc1ccc(C2C(Cc3cc4ccccc4[nH]3)NC3(C(=O)Nc4ccc(Br)cc43)C2C(=O)c2ccc(F)cc2)cc1 (stereo not shown) [25a] for me?
Result: 154 to 156 °C

Request: Another compound to check: O=C(c1ccc(F)cc1)[C@@H]1[C@@H](c2ccc(Cl)cc2)[C@H](Cc2ccccc2)N[C@@]12C(=O)Nc1ccccc12 [24d]
Result: 104 to 106 °C

Request: Another compound to check: Cc1ccc(C(=O)[C@@H]2[C@@H](c3ccc(Br)cc3)[C@H](Cc3ccccc3)N[C@@]23C(=O)Nc2ccc([N+](=O)[O-])cc23)cc1 [24b]
Result: 121 to 122 °C
